test.target: S. aureus DHFR (Staphylococcus aureus)
Sequence (P0A017 whole entry): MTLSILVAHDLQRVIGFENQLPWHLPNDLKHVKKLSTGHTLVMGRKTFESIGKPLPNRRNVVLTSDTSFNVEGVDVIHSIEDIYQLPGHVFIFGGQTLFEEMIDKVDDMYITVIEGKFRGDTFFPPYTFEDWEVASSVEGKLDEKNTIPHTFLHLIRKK
Assay type: biochemical
setup.conditions: read-out: Ki, nM (SEM) S. aureus 29213; pH 7.0, 30 °C
Measured Ki of individual entries
assay.metric: Ki (nM)

>>> numeric_value("CCCC1c2ccccc2C=NN1C(=O)/C=C/c1cc(Cc2c(N)nc(N)nc2CC)cc(OC)c1OC (racemic) [Compound 11b]")
3.6
>>> numeric_value("CCc1nc(N)nc(N)c1Cc1cc(/C=C/C(=O)N2N=Cc3ccccc3C2C=C(C)C)c(OC)c(OC)c1 (racemic) [Compound 12b]")
2.9
>>> numeric_value("CCCc1nc(N)nc(N)c1Cc1cc(/C=C/C(=O)N2N=Cc3ccccc3C2CCC)c(OC)c(OC)c1 (racemic) [Compound 11c]")
4
>>> numeric_value("CCCC1c2ccccc2C=NN1C(=O)/C=C/c1cc(Cc2c(C)nc(N)nc2N)cc(OC)c1OC (racemic) [Compound 11a]")
4.5
>>> numeric_value("CCCc1nc(N)nc(N)c1Cc1cc(/C=C/C(=O)N2N=Cc3ccccc3C2C=C(C)C)c(OC)c(OC)c1 (racemic) [Compound 12c]")
4.1
>>> numeric_value("COc1cc(Cc2c(C)nc(N)nc2N)cc(/C=C/C(=O)N2N=Cc3ccccc3C2C=C(C)C)c1OC (racemic) [Compound 12a]")
3.4
